Test system: HEp-2 epithelial tumor cells
Experiment: MTT cell viability / anti-tumor activity
Conditions: Homo sapiens, HEp-2, 48 h, read-out: Cell viability on Hep2 cells (%)
Criterion: viability at 25 µg/mL strictly less than 70%. Met: satisfied. Not met: not satisfied.

[[record]]
molecule = "C[C@@H]1CC[C@@]2(OC1)O[C@H]1C[C@H]3[C@@H]4CC=C5C[C@@H](O[C@@H]6O[C@H](CO)[C@@H](O[C@@H]7O[C@@H](C)[C@H](O)[C@@H](O)[C@H]7O)[C@H](O)[C@H]6O[C@@H]6O[C@@H](C)[C@H](O)[C@@H](O)[C@H]6O)CC[C@]5(C)[C@H]4CC[C@]3(C)[C@H]1[C@@H]2C [dioscin, reference compound]"
measured_target = "HEp-2 epithelial tumor cells"
group = "satisfied"

[[record]]
molecule = "Cc1nn(CNc2ccccc2Cl)c(C)c1[N+](=O)[O-] [4f]"
measured_target = "HEp-2 epithelial tumor cells"
group = "not satisfied"

[[record]]
molecule = "Cc1nn(CN(Cn2nc(C)c([N+](=O)[O-])c2C)c2ccc(Cl)cc2)c(C)c1[N+](=O)[O-] [5b]"
measured_target = "HEp-2 epithelial tumor cells"
group = "not satisfied"

[[record]]
molecule = "Cc1nn(CN(Cn2nc(C)c([N+](=O)[O-])c2C)c2ccc(I)cc2)c(C)c1[N+](=O)[O-] [5d]"
measured_target = "HEp-2 epithelial tumor cells"
group = "satisfied"

[[record]]
molecule = "Cc1nn(CN(Cn2nc(C)c([N+](=O)[O-])c2C)c2ccc(Br)cc2)c(C)c1[N+](=O)[O-] [5c]"
measured_target = "HEp-2 epithelial tumor cells"
group = "satisfied"

[[record]]
molecule = "Cc1nn(CN(Cn2nc(C)c([N+](=O)[O-])c2C)c2ccc(F)cc2)c(C)c1[N+](=O)[O-] [5a]"
measured_target = "HEp-2 epithelial tumor cells"
group = "satisfied"

[[record]]
molecule = "Cc1nn(CNc2ccc(Br)cc2)c(C)c1[N+](=O)[O-] [4c]"
measured_target = "HEp-2 epithelial tumor cells"
group = "not satisfied"

[[record]]
molecule = "Cc1nn(CN(Cn2nc(C)c([N+](=O)[O-])c2C)c2cccc(Cl)c2)c(C)c1[N+](=O)[O-] [5e]"
measured_target = "HEp-2 epithelial tumor cells"
group = "satisfied"

[[record]]
molecule = "Cc1nn(CNc2ccc(I)cc2)c(C)c1[N+](=O)[O-] [4d]"
measured_target = "HEp-2 epithelial tumor cells"
group = "not satisfied"

[[record]]
molecule = "Cc1nn(CNc2ccc(Cl)cc2)c(C)c1[N+](=O)[O-] [4b]"
measured_target = "HEp-2 epithelial tumor cells"
group = "not satisfied"

[[record]]
molecule = "Cc1nn(CNc2ccc(F)cc2)c(C)c1[N+](=O)[O-] [4a]"
measured_target = "HEp-2 epithelial tumor cells"
group = "not satisfied"

[[record]]
molecule = "Cc1nn(CNc2cccc(Cl)c2)c(C)c1[N+](=O)[O-] [4e]"
measured_target = "HEp-2 epithelial tumor cells"
group = "not satisfied"

